tested on: RXRa DBDmut IVT, anti-RXR (DBD mutation: RXRa K156A/R161A, NR concentration 90 nM); assay: PBM binding z-score (relative to random genomic background probes); higher = stronger binding; sequences stand for … in GC…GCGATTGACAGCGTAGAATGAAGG
Use MET when the recorded PBM binding z-score is no lower than 0.9; use NOT MET when it is lower.

{"residue-codes": "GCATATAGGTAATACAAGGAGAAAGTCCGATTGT", "cat": "NOT MET"}
{"residue-codes": "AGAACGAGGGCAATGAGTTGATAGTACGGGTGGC", "cat": "MET"}
{"residue-codes": "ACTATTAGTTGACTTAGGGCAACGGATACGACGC", "cat": "NOT MET"}
{"residue-codes": "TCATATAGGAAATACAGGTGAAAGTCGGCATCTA", "cat": "MET"}
{"residue-codes": "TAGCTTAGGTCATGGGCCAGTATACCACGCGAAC", "cat": "MET"}
